Assay: AP1 Signaling Pathway (AID 357);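 further: ME-180 reporter cells stimulated with EGF at its EC50 level; on the % scale 0 is the no-effect control and ±100 the full control effect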
Conditions: ME-180 AP-1-bla reporter, EGF-induced, beta-lactamase ratio, 5 h; at 7.69 µM (top of the series) unless noted
Description: NCGC Assay Overview: Activator protein-1 (AP-1), a transcription factor, plays an important role in tumor genesis by regulating genes involved in cell proliferation, differentiation, apoptosis, and angiogenesis. AP-1 activity is induced by a complex network of signaling pathways that involves extracellular signals, such as growth factors. […] Library compounds were measured for their ability to modulate positively or negatively the action of EC50 EGF on reporter gene activity. […]
Records with an inconclusive call do not appear. Active and inactive are the calls of the source. The call rests on the fitted dose curve; in most records, active means well fitted curve in either direction with a large enough effect (not every such curve was filed as active); inconclusive means small, poorly fitted or top-dose-only effect, or another doubt; inactive means flat fitted curve, though single readings scatter.
Assignment: determine reported activity change, negative = inhibition for the given molecules.

The recorded activity change, negative = inhibition for entry "O=C(O)/C=C\C=C/c1ccc2c(c1)OCO2" equals 6.54% (inactive)

The recorded activity change, negative = inhibition for entry "C/C(=N/S(=O)(=O)c1ccc(Cl)c(Cl)c1)OCC(C)(C)C" equals 2.66% (inactive)

The recorded activity change, negative = inhibition for entry "Cc1ccc(S(=O)(=O)Nc2ccccc2C=O)cc1" equals -0.783% (inactive)

The recorded activity change, negative = inhibition for entry "C[C@@H](Cc1ccccc1)Nc1ncnc2c1ncn2[C@@H]1O[C@@H](CO)[C@H](O)[C@@H]1O" equals -12.1% [at 38 µM] (inactive)

The recorded activity change, negative = inhibition for entry "NNC(=O)[C@@H](O)[C@H](O)[C@H](O)CO" equals 2.85% (inactive)

The recorded activity change, negative = inhibition for entry "O=C(O)c1oc(C(=O)O)c(C(=O)O)c1C(=O)O" equals 10.9% (inactive)

The recorded activity change, negative = inhibition for entry "Nc1c(S(=O)(=O)O)cc(Nc2cccc(S(N)(=O)=O)c2)c2c1C(=O)c1ccccc1C2=O" equals 26% (inactive)

====

Assay: AP1 Signaling Pathway (AID 357);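 further: ME-180 reporter cells stimulated with EGF at its EC50 level; on the % scale 0 is the no-effect control and ±100 the full control effect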
Conditions: ME-180 AP-1-bla reporter, EGF-induced, beta-lactamase ratio, 5 h; at 7.69 µM (top of the series) unless noted
Inconclusive results are not listed.
Assignment: determine reported activity change, negative = inhibition for the given compounds.
Response body: numeric value in %, unit text excluded.

The recorded activity change, negative = inhibition for entry "CN(C)Cc1nsc(N(C)C)n1" equals 6.96

The recorded activity change, negative = inhibition for entry "O=C(c1ccccc1)[C@H](Nc1ccc2ccccc2c1)c1ccccc1" equals 23.6

The recorded activity change, negative = inhibition for entry "O=S(=O)(O)[C@@H](c1ccccc1)[C@@H](O)c1ccccc1" equals 1.17

The recorded activity change, negative = inhibition for entry "O=C(O)/C(Cc1ccnc2ccccc12)=N\O" equals -9.39

The recorded activity change, negative = inhibition for entry "CN1CCC[C@H](C(=O)OCC(=O)[C@]2(O)CC[C@@H]3[C@H]4CCC5=CC(=O)CC[C@@]5(C)[C@H]4[C@@H](O)C[C@]32C)C1" equals 11

The recorded activity change, negative = inhibition for entry "O=C(O)c1ccccc1-c1ccccc1C(=O)Nc1ccc2c(c1)[nH]c(=O)c1ccccc12" equals -4.06

The recorded activity change, negative = inhibition for entry "O=C(O)[C@H](/C=C\c1ccccc1)c1ccccc1" equals 0.652

The recorded activity change, negative = inhibition for entry "CC(=O)N[C@@H]1CONC1=O" equals 10.9

The recorded activity change, negative = inhibition for entry "NS(=O)(=O)c1cc(C(=O)O)c(O)c2ccccc12" equals 15.8

The recorded activity change, negative = inhibition for entry "N/N=C1/CC(=O)NC(=O)N1" equals 2.16

The recorded activity change, negative = inhibition for entry "c1cncc(CSc2ncnc3nc[nH]c23)c1" equals -2.25

The recorded activity change, negative = inhibition for entry "Cn1c(=O)c2[nH]c(/N=N\N3CCN(CCO)CC3)nc2n(C)c1=O" equals 6.96

The recorded activity change, negative = inhibition for entry "CC(C)[C@@H](C)/C=C\[C@@H](C)[C@@H]1CC[C@H]2C3=CC=C4C[C@@H](O)CC[C@]4(C)[C@H]3CC[C@]21C" equals -3.49

The recorded activity change, negative = inhibition for entry "CC(=O)O[C@]1(C)N=NC2(CCCCC2)O1" equals 0.791

The recorded activity change, negative = inhibition for entry "O=C(O)/C(=C\c1ccncc1)c1cccc2ccccc12" equals -1.57

The recorded activity change, negative = inhibition for entry "NCCSCc1ccccc1Cl" equals 1.67

The recorded activity change, negative = inhibition for entry "c1ccc(C2=NN[C@@H]3c4ccccc4-c4ccccc4N3C2)cc1" equals -18.5

The recorded activity change, negative = inhibition for entry "CCO[P@]1(=O)OC[C@@H]2O[C@H](n3cnc4c(N)ncnc43)[C@H](O)[C@@H]2O1" equals -10.8

The recorded activity change, negative = inhibition for entry "COc1ccccc1-c1nc(NCCc2cnc[nH]2)c2ccccc2n1" equals 17.1

====

Test: Stat Signaling Pathway (AID 446);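 further: ME-180 cervical cancer cells given 40 pM IL-6 alongside compound; SIE-controlled beta-lactamase reporter measured as 460/530 nm FRET emission ratio; on the % scale 0 is the no-effect control and ±100 the full control effect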
Details: ME-180 (cervical carcinoma) SIE beta-lactamase reporter, IL-6 stimulated, 5 h; at 7.69 µM (top of the series) unless noted
Results filed as inconclusive are left out.
test-readout: activity, negative = inhibition (%)
Response body: numeric value in %, unit text excluded.

The recorded activity, negative = inhibition for entry "C/C(=N/NS(=O)(=O)c1ccc(C)cc1)P(=O)(O)O" equals 6.08

The recorded activity, negative = inhibition for entry "CC1=NN(c2ccc(S(=O)(=O)O)cc2)C(=O)/C1=C\c1ccc(Cl)cc1" equals -1.78

The recorded activity, negative = inhibition for entry "COc1ccc(/C=C(\C#N)C(N)=O)c(OC)c1" equals 3.37

The recorded activity, negative = inhibition for entry "O=C(C[n+]1ccc2ccccc2c1)c1ccc2ccc3ccccc3c2c1" equals 0.433

The recorded activity, negative = inhibition for entry "OCCCNCc1ccncc1" equals -6.9

The recorded activity, negative = inhibition for entry "COc1ccc(-c2nc3cnc(Oc4ccccc4)nc3n(C3CC3)c2=O)cc1" equals 4.9

The recorded activity, negative = inhibition for entry "C(CCc1nnc2c(n1)CCCC2)Cc1nnc2c(n1)CCCC2" equals 0.257

====

Experiment: NFAT Signaling Pathway (AID 444);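 further: carbachol stimulus at about its EC50 of 1 µM final; on the % scale 0 is the no-effect control and ±100 the full control effect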
Settings: Jurkat NFAT-bla M1, carbachol, beta-lactamase ratio, 5 h; at 7.69 µM (top of the series) unless noted
Inconclusive results are not listed. Activity calls are given as the source filed them. The call rests on the fitted dose curve; in most records, active means well fitted curve in either direction with a large enough effect (not every such curve was filed as active); inconclusive means small, poorly fitted or top-dose-only effect, or another doubt; inactive means flat fitted curve, though single readings scatter.
Assignment: determine reported activity change, negative = inhibition for the given compounds.

The recorded activity change, negative = inhibition for entry "O=C(O)CCc1c2ccc(=O)c(O)c-2oc2c(O)c(O)ccc12" equals 17.3% (inactive)

The recorded activity change, negative = inhibition for entry "O=C1COC(c2ccccc2O)=NN1CCCN1CCCC1" equals -11.6% (inactive)

The recorded activity change, negative = inhibition for entry "O=C(CSC1=NCCN1)c1ccccc1" equals -8.06% (inactive)

The recorded activity change, negative = inhibition for entry "CC(=O)C=NCC(=O)O" equals 3.49% (inactive)

The recorded activity change, negative = inhibition for entry "NC(=S)N/N=C\c1c[nH]c2ccccc12" equals -6% (inactive)

The recorded activity change, negative = inhibition for entry "O=C(C[N+]1(c2ccccc2)CCOCC1)c1ccccc1" equals 11.5% (inactive)

The recorded activity change, negative = inhibition for entry "O=C(O)[C@@H]1CCN(Cc2oc(CO)cc(=O)c2O)C1" equals -8.96% (inactive)

The recorded activity change, negative = inhibition for entry "Nc1ccn([C@H]2O[C@@H](COP(=O)(O)O)[C@@H](O)[C@H]2O)c(=O)n1" equals 12.4% (inactive)

The recorded activity change, negative = inhibition for entry "O=C(O)c1cc(-c2ccncc2)nc2ccccc12" equals -5.13% (inactive)

The recorded activity change, negative = inhibition for entry "CC1(C)O[C@H]2[C@@H](O1)[C@@H](On1nnc3ccc(Cl)cc31)O[C@@H]2[C@@H]1COC(C)(C)O1" equals 3.42% (inactive)

The recorded activity change, negative = inhibition for entry "O=C(O)CSC1=NCCN1" equals 7.29% (inactive)

The recorded activity change, negative = inhibition for entry "CN(/N=C\c1ccccc1O)c1ccc2ccccc2n1" equals -9.81% (inactive)

The recorded activity change, negative = inhibition for entry "CC1(C)CCC(NC(=O)[C@H](N)CCC(=O)O)CC1" equals 2.47% [at 38 µM] (inactive)

The recorded activity change, negative = inhibition for entry "c1ccc(-c2cc(-c3cc(-c4ccccn4)[nH]n3)n[nH]2)nc1" equals 1.51% (inactive)

The recorded activity change, negative = inhibition for entry "CC(C)(C)c1ccc(NS(=O)(=O)c2ccc(N)cc2)cc1" equals -2.46% (inactive)

The recorded activity change, negative = inhibition for entry "Cc1nnc(S(=O)(=O)c2ccc(N=Nc3c(N)nc(N)nc3N)cc2)s1" equals 7.42% (inactive)

The recorded activity change, negative = inhibition for entry "CC(=O)/C(=N\N=C(N)N)c1ccccc1" equals -0.66% (inactive)

The recorded activity change, negative = inhibition for entry "O=C(O)c1cccc(N=Nc2c(S(=O)(=O)O)ccc3c2C(=O)c2ccccc2C3=O)c1O" equals -3.54% (inactive)

The recorded activity change, negative = inhibition for entry "Clc1ccc(CSCCc2ccncc2)cc1Cl" equals 2.37% (inactive)

The recorded activity change, negative = inhibition for entry "c1ccc(CCN2CCN=C2Cc2ccccc2)cc1" equals -21.9% (inactive)
